Values from PubChem BioAssay (NCI)

Recorded measurements of GI50, one per entry
- Tested on: UACC-257 melanoma
- Test summary: NCI tumour cell line growth inhibition, 48 h
Measured attribute: GI50

1. COc1ccc2nc3cc(Cl)ccc3c(N3CCN(c4ccnc(N5CCN(C)CC5)n4)CC3)c2c1
11.4 µM
2. CC1CCC2C(CN(CC3=C(C(F)(F)F)OC4OC5(C)CCC6C(C)CCC3C46OO5)CC3=C(C(F)(F)F)OC4OC5(C)CCC6C(C)CCC3C46OO5)=C(C(F)(F)F)OC3OC4(C)CCC1C32OO4 (centres undefined)
27.1 µM
3. CN(C)CCCn1c2c(c3cc4c(cc3c1=O)OCO4)C(=O)c1ccccc1-2
1.54 µM
4. NCc1ccc(-c2nc(-c3ccc(Cl)c(O)c3)c(-c3ccncc3)[nH]2)cc1
3.63 µM
